Source: PubChem BioAssay (NCI)

test: NCI Yeast Anticancer Drug Screen. Data for the mlh1 rad18 strain (AID 175); conditions: S. cerevisiae mlh1 rad18 strain growth inhibition; at 5.0 µM (retest, dose inferred, filed as 0.5); hits give high values
The panel holds about 79,000 compounds, 15% with a hit somewhere; the sample as a whole holds those more often.
Provide the recorded growth inhibition for the entries that follow.
Just the number in %, nothing appended.

Requested field: growth inhibition. Item: CC1=CCC2(C)C3CCC4(C)C(O)CCC4C3CCC2(C)C1 (stereo unspecified)
-10

What does the record list as growth inhibition for CCOP(=O)(CC(C)P(=O)(OCC)OCC)OCC.C[CH2][Sn]([Cl])([Cl])[CH2]C (stereo unspecified) ?
-2

Entry CC(=O)OC1CCC2(C)C3CCC4(C)C(OC(=O)c5ccccc5)CCC4C3CC(Br)C2(O)C1 (stereo unspecified) : reported growth inhibition = ?
42

Query: growth inhibition; subject: CCOCCOC(=O)Cc1ccccc1
6

Give the measured growth inhibition of COc1cc(C=Nc2cc[c]([Hg][O]C(C)=O)cc2)ccc1O .
0

// query growth inhibition value for entry NNc1ccccc1Cl
82

Given O=S(=O)([O-])[O-].[OH3+].[OH3+].[OH3+].[Ru+2].c1ccccc1 , state its recorded growth inhibition.
-38

Which value of growth inhibition has been reported for CSc1ccccc1[As](C)C in the records?
97

Item under review: O=C(COc1ccc(Cl)cc1Cl)NO . Reported growth inhibition?
-118

For the compound shown here, O=C1CCC[N]1[Hg][N]1CCCC1=O , give the reported growth inhibition.
33

Entry under review: Nc1ccccc1C(=O)OCCc1ccccc1 . Reported growth inhibition?
34

Record request: growth inhibition value, item O=C(/C=C(\c1ccccc1)N1CC1)c1ccccc1
-139

For O=C(N/N=C/c1cc(Cl)cc(Cl)c1[O-])c1ccccc1O.O=C(N/N=C/c1cc(Cl)cc(Cl)c1[O-])c1ccccc1O.[Zn+2] , what is its reported growth inhibition?
95

Please look up its growth inhibition: CCCNC(=O)Nc1ccc2c(c1)Cc1cc(N(CCCl)CCCl)ccc1-2
3

# input compound: [Cl][Hg][Cl].c1cnccn1 ; wanted: its growth inhibition
32

I am curious: what growth inhibition value has been reported for C[N+](CCCl)(CCCl)Cc1cccc2cccc([N+](=O)[O-])c12 ?
31

Please report the recorded growth inhibition for [Br][Ni][Br].c1ccc(CN2CCN(Cc3ccccc3)CCN(Cc3ccccc3)CCN(Cc3ccccc3)CC2)cc1 .
3

Which growth inhibition is listed for CC(C)=[CH][Sb]([Br])([CH]=C(C)C)([CH]=C(C)C)[CH]=C(C)C ?
-7

Param item = S=P(Nc1ccccc1)(Nc1ccccc1)Nc1ccccc1 ; retrieve measured growth inhibition.
23

Query: growth inhibition; subject: S=C1NC2(CCCCC2)NC12CCCCC2
-9

Need growth inhibition of Cc1ccc(NP(=O)(Oc2ccccc2)N(CCCl)CCCl)cc1 (stereo unspecified) , thanks.
-10

May I ask what growth inhibition has been recorded for CC1(C)C(=O)C=CC2(C)C1CC(O)C1(C)C2CCC2(C)C(c3ccoc3)OC(=O)C3OC321 (stereo unspecified) ?
16

Please look up its growth inhibition: Cc1cc(O)c2c(c1)C(=O)C13C(=C2O)C(=O)C2C(O)C1C1C(O)C3C(=O)C3=C(O)c4c(O)cc(C)cc4C(=O)C321 (stereo unspecified)
34

# input compound: Nc1ncc(CCCCc2ccc(NC(=O)Nc3ccc(S(=O)(=O)F)cc3)cc2)c(N)n1 ; wanted: its growth inhibition
4

# lookup: growth inhibition of CN1CC(Br)(Br)C(=O)N(C)C1=O
2

Any idea what its growth inhibition is? The compound is CCOP(=O)(OCC)Oc1ccc([N+](=O)[O-])cc1
13

Request the reported growth inhibition associated with CC(=O)C(Br)C(C)=O.CC(=O)C(Br)C(C)=O.CC(=O)C(Br)C(C)=O.[Rh]
6

Give the measured growth inhibition of CS(=O)(=O)OCCN(CCOS(C)(=O)=O)c1ccc(C=O)cc1 .
76

Any idea what growth inhibition was measured for CC#N.FC(F)(F)C#CC(F)(F)F.FC(F)(F)C#CC(F)(F)F.FC(F)(F)C#CC(F)(F)F.[W] ?
95

Field request: growth inhibition | item: C[CH2][Sn]1([CH2]C)[c]2ccccc2Oc2cccc[c]21
99

Endpoint output: growth inhibition of CC(C)C(=O)CP(=O)(O)O . Value?
7
